- assayText: Half life in Sprague-Dawley rat at 10 mg/kg, IG measured upto 24 hrs by LC-MS/MS analysis
- Assay type: ADME, organism-based
- testContext: in vivo, po
reportedProperty: half-life (h)
Provide only the numeric value, understood in h.

Noted for `C#C[C@]1(CO)O[C@@H](n2cnc3c(N)nc(F)nc32)[C@@H](F)[C@@H]1O` : its half-life reads 2.3

* * *

- assayText: AUC (0 to t) in male Sprague-Dawley rat at 100 mg/kg, IG measured at 0.5 hrs LC-MS/MS analysis
- Format: ADME, organism-based
- Set-up: dose 100 mg/kg, time 0.5 hrs, route ig
- testContext: in vivo, po
reportedProperty: AUC(0-t) at 0.5 h (ng·h/mL)
Supply the numeric figure in ng·h/mL, leaving out any unit text.

Sure, the documented AUC(0-t) at 0.5 h for `C#C[C@]1(CO)O[C@@H](n2cnc3c(N)nc(F)nc32)[C@@H](F)[C@@H]1O` is 89300

* * *

- assayText: AUC (0 to t) in Sprague-Dawley rat at 2.5 mg/kg, IG measured upto 24 hrs by LC-MS/MS analysis
- Type: ADME, organism-based
- Set-up: time < 24 hrs, dose 2.5 mg/kg, route ig
- testContext: in vivo, po
reportedProperty: AUC(0-t) at 24 h (ng·h/mL)
Numeric only. Scale: ng·h/mL

Consider `C#C[C@]1(CO)O[C@@H](n2cnc3c(N)nc(F)nc32)[C@@H](F)[C@@H]1O` . Its measured AUC(0-t) at 24 h is 1720

* * *

- assayText: Apparent […] clearance in Sprague-Dawley rat at 5 mg/kg, iv measured upto 24 hrs by LC-MS/MS analysis
- Type: ADME, organism-based
- testContext: in vivo
reportedProperty: CL/F (mL/min/kg)
# unit: mL/min/kg | format: bare number

For `C#C[C@]1(CO)O[C@@H](n2cnc3c(N)nc(F)nc32)[C@@H](F)[C@@H]1O` the compound record lists CL/F as 16.4

* * *

- assayText: Selectivity index, ratio of CC50 for cytotoxicity against HEK293T cells assessed as reduction in cell viability by MTT assay to EC50 for antiviral activity against HIV1 VSV-G pseudotyped virus infected in human HEK293T cells assessed as inhibition of viral growth
- Assay type: toxicity, cell-based
- testContext: read-out: Ratio CC50/EC50
Answer each item with its documented selectivity ratio.

Reported selectivity ratio for `[N-]=[N+]=N[C@]1(CO)O[C@@H](n2cnc3c(N)nc(F)nc32)[C@@H](F)[C@@H]1O` was > 50300

# selectivity ratio of `COc1nc(N)c2ncn([C@@H]3O[C@@](CO)(N=[N+]=[N-])[C@@H](O)[C@@H]3F)c2n1` = > 22400

So for `C#C[C@]1(CO)O[C@@H](n2cnc3c(N)ncnc32)[C@@H](F)[C@@H]1O` , the logged selectivity ratio turned out to be 24600

Looking up Nc1ccn([C@@H]2CS[C@H](CO)O2)c(=O)n1 [LAMIVUDINE] , I found its selectivity ratio recorded as > 588

`C#C[C@]1(CO)O[C@@H](n2cnc3c(N)nc(F)nc32)[C@@H](F)[C@@H]1O` yielded selectivity ratio of > 111000

* * *

- assayText: Half life in Sprague-Dawley rat at 5 mg/kg, iv measured upto 24 hrs by LC-MS/MS analysis
- Format: ADME, organism-based
- testContext: in vivo
reportedProperty: half-life (h)
# value in h; strip the unit string

// recorded half-life for `C#C[C@]1(CO)O[C@@H](n2cnc3c(N)nc(F)nc32)[C@@H](F)[C@@H]1O` : 1.8

Hello, the source for this data is ChEMBL document CHEMBL5360641, in case you need it.
